// data source = ChEMBL document CHEMBL4715923

TARGET OR SYSTEM: Coagulation factor X (Homo sapiens)
Sequence (P00742 41-179 limits assumed): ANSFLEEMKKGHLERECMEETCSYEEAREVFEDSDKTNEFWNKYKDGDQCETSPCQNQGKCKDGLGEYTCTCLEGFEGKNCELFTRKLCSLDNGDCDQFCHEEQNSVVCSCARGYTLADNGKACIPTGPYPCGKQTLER
Sequence (P00742 235-488 limits assumed): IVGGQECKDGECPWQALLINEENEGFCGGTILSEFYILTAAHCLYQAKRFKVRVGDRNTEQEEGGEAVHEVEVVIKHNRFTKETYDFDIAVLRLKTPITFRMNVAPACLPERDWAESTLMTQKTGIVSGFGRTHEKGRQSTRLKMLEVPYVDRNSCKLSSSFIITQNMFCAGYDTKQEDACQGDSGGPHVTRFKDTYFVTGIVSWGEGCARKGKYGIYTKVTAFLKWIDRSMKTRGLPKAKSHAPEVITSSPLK
MEASUREMENT TYPE: pIC50
Numbers only, as −log10 of the molar value.

Prompt line: Dear colleague, I am looking for the recorded pIC50 of the following compound: CC(=N)N1CCC(Oc2ccc3c(c2)C(=O)NS(=O)(=O)N3Cc2ccc3ccc(C(=N)N)cc3c2)CC1
Response line: 9.40
